Recorded measurements of Ki, one per entry
Biological target: Caspase-1 (Homo sapiens)
Sequence (P29466 120-297 limits assumed): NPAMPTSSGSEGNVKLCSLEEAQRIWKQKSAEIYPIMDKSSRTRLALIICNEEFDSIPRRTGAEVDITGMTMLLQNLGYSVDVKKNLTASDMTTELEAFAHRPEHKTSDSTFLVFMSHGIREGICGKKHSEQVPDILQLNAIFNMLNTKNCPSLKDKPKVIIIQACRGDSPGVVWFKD
Sequence (P29466 317-404 limits assumed): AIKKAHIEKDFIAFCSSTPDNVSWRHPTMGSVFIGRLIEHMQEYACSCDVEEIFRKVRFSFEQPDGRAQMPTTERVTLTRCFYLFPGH
Assay: Caspase-1 enzyme inhibition (Ki)
Assay type: biochemical
Conditions: substrate Suc-YVAD-pNA 80 μM, 37° C., pH 7.5
Where a SMILES comes first, the peptide text is derived from it. [ ]: non-standard residue; d: D form. The star is where a group is joined. Aze = O=C(O)[C@@H]1CCN1; Bz = O=C(c1ccccc1)*

### Prompt Name the recorded Ki for CC(C)[C@H](NC(=O)c1ccccc1)C(=O)N1CC[C@H]1C(=O)N[C@H](C=O)CC(=O)O [Example 24d] (Bz-Val-[Aze]-Asp-aldehyde) .
### Response 10 to 1000 nM

### Prompt Name the recorded Ki for `CC(C)[C@H](NC(=O)Cc1ccc(Cl)c(Cl)c1)C(=O)N1CCC[C@H]1C(=O)N[C@H](C=O)CC(=O)O` .
### Response 10 to 1000 nM

### Prompt Name the recorded Ki for CSC[C@H](NC(=O)c1cc(Cl)c(O)c(Cl)c1)C(=O)N1CCC[C@H]1C(=O)N[C@H](C=O)CC(=O)O [Example 20o] .
### Response < 10 nM

### Prompt Name the recorded Ki for `CC(C)[C@H](NC(=O)c1ccc2c(c1)S(=O)(=O)c1ccccc1C2=O)C(=O)N1CCC[C@H]1C(=O)N[C@H](C=O)CC(=O)O` .
### Response < 10 nM

### Prompt Name the recorded Ki for `C[C@H](NC(=O)c1ccc(N(C)C)c2ccccc12)C(=O)N1CCC[C@H]1C(=O)N[C@H](C=O)CC(=O)O` .
### Response < 10 nM

### Prompt Name the recorded Ki for `CCCc1c(C(=O)N[C@H](C(=O)N2CCC[C@H]2C(=O)N[C@H](C=O)CC(=O)O)C(C)C)cnn1-c1ccc(Cl)cc1` .
### Response 10 to 1000 nM

### Prompt Name the recorded Ki for CC(C)C[C@@H](C(=O)N[C@H](C=O)CC(=O)O)N1CC[C@@H](NC(=O)c2ccc3[nH]nnc3c2)C1=O [Example 32c] .
### Response > 1000 nM

### Prompt Name the recorded Ki for `C[C@H](NC(=O)c1nccc2ccccc12)C(=O)N1CCC[C@H]1C(=O)N[C@H](C=O)CC(=O)O` .
### Response < 10 nM

### Prompt Name the recorded Ki for `CC(C)[C@H](NC(=O)c1cccc2c1-c1ccccc1C2=O)C(=O)N1CCC[C@H]1C(=O)N[C@H](C=O)CC(=O)O` .
### Response < 10 nM

### Prompt Name the recorded Ki for `Cc1cc(C(=O)N[C@@H](C)C(=O)N2CCC[C@H]2C(=O)N[C@H](C=O)CC(=O)O)ccc1N` .
### Response 10 to 1000 nM

### Prompt Name the recorded Ki for `CC(C)[C@H](NC(=O)c1ccc(O)cc1)C(=O)N1CCC[C@H]1C(=O)N[C@H](C=O)CC(=O)O` .
### Response 10 to 1000 nM
